- test: NCI Yeast Anticancer Drug Screen. Data for the cln2 rad14 strain (AID 165)
- particulars: S. cerevisiae cln2 rad14 strain, at 50.0 µM
About 79,000 compounds went through this panel and 15% of them were active in at least one assay; those are over-represented in the sample as a whole. Calls of active or inactive are those of the source. Rule as the data show it: active = growth inhibition above about 70%; inactive = the rest.
Can you answer with just one of these options? active, inactive

INPUT: Hi, do you know how COc1cccc(NC(=O)C(=O)C(C(=O)c2ccccc2F)C2OC(=O)c3ccccc32)c1 (stereo unspecified) came out in this test?
OUTPUT: inactive

INPUT: Please let me know the test result on file for O=C(Nc1cccc(Cl)c1)Oc1cccnc1 .
OUTPUT: inactive

INPUT: I'd appreciate the recorded outcome for O=C(c1ccccc1)c1cnc2ccccn12 from this test.
OUTPUT: inactive

INPUT: In this assay, the call recorded for Nc1ccc(C(=O)O)cn1 was what?
OUTPUT: inactive

INPUT: Query: recorded result category for O=C(NC1CCCCC1NC(c1ccccc1)(c1ccccc1)c1ccccc1)C(=O)NC1CCCCC1NC(c1ccccc1)(c1ccccc1)c1ccccc1 (stereo unspecified) in this test
OUTPUT: inactive

INPUT: Fill in: this test's call for O=C(Nc1ncnc2nc(-c3ccccc3)[nH]c12)c1ccccc1 is ___
OUTPUT: inactive

INPUT: Assay result, entry c1ccc(-c2oc3ccc4ccccc4c3c2-c2ccc(OCCN3CCCC3)cc2)cc1 — outcome?
OUTPUT: inactive

INPUT: Call for entry CCCCN1C(=O)C(NC(C)=O)C1COC(C)(C)C (stereo unspecified) :
OUTPUT: inactive

INPUT: Field: outcome | Entry: NC(CSCC(=O)O)C(=O)O (stereo unspecified)
OUTPUT: inactive

INPUT: Identify the outcome logged in this assay for the molecule shown: O=C1C(Cl)=C(Cl)C(=O)N1c1ccccc1Cl
OUTPUT: inactive

INPUT: Dear colleague, could you share the recorded outcome for O=C1c2ccccc2C(=O)c2c1ccc1c2N=C(c2ccc(Br)cc2)CC(c2cccc3ccccc23)N1 (stereo unspecified) when you have a moment?
OUTPUT: inactive

INPUT: What is the recorded call for this molecule in the test? O=P(CCc1ccccc1)(OCCCl)OCCCl
OUTPUT: inactive

INPUT: Any idea what this test logged for Cc1c(-c2ccccc2)n[nH]c1-c1[nH]nc(-c2ccccc2)c1C ?
OUTPUT: inactive

INPUT: Could you kindly confirm the outcome this assay logged for C/C(=N\O)c1ccc2[nH]c(C)cc(=O)c2c1 ?
OUTPUT: inactive

INPUT: Per the records of this test, what outcome belongs to CCOC(=O)COc1ccc(Cl)cc1CCl ?
OUTPUT: inactive

INPUT: Would you mind telling me which call this test gave C=CCn1c(=O)cc[nH]c1=S ?
OUTPUT: inactive

INPUT: Any idea what this test logged for c1ccc2c(c1)NC(C1OC3CCCN3C1C1Nc3ccccc3S1)S2 (stereo unspecified) ?
OUTPUT: inactive

INPUT: State the result this test recorded for CN(C)c1nc(Oc2nc(N(C)C)nc(N(C)C)n2)nc(N(C)C)n1 .
OUTPUT: inactive

INPUT: # fetch the recorded call for OCCSCCCCCSCCO here
OUTPUT: inactive

INPUT: Please state the recorded outcome for this molecule: Cc1cc2ccccc2nc1-c1ccncc1
OUTPUT: inactive

INPUT: Recorded test call requested for COc1ccc(N)cc1CO
OUTPUT: inactive

INPUT: For this molecule, state the assay outcome: O=Cc1[nH]c(=S)[nH]c(=O)c1Cc1cccc(Cl)c1
OUTPUT: inactive

INPUT: // param item: CC1C=C(Br)C(=O)C(n2cnc3c(=O)n(C)c(=O)n(C)c32)O1 (stereo unspecified) ; yields the recorded call
OUTPUT: inactive

INPUT: Assay outcome for O=P1(c2ccccc2)C(c2ccccc2)=CC=C1c1ccccc1 : what was it?
OUTPUT: inactive

INPUT: Hello, I am checking results. What call was entered for CSc1ccc(NC(=O)Nc2ccc(Cl)cc2C(=O)c2ccccc2)cc1 ?
OUTPUT: active

INPUT: Hi team, can someone confirm the assay call for CC(=O)c1c(-c2ccc(Cl)cc2)c(-c2ccc(Cl)cc2)nn(CCN)c1=O ?
OUTPUT: inactive
